EXPERIMENTAL TARGET: T1, human B7-H4 (purified monomeric recombinant human protein, ACRO biosystems) (human, UniProt Q7Z7D3 29-258, limits assumed, chemically biotinylated (EZ-Link NHS-LC-Biotin) in the yeast display and competition experiments; non-biotinylated in SPR)
T1 construct: Bought recombinant monomeric protein; also called B7x; B7S1
T1 sequence: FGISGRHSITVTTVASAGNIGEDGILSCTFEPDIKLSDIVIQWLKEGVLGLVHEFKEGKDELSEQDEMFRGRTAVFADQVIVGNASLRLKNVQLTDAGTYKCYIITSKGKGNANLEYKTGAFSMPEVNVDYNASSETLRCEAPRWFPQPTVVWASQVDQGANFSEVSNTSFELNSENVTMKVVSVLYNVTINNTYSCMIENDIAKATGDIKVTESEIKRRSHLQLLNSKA
TEST SUMMARY: SPR (Carterra LSA); scFv-Fc captured on anti-human IgG Fc, antigen injected
QUANTITY KIND: pKd
As a rule, pKd stands for the negative log10 of the concentration, concentration in M.

[
  {
    "BINDER": "A12 scFv-Fc (scFv, V domains shown, Tested as scFv-Fc fusion (human IgG1 Fc, vector pDNL9) in crude yeast supernatant; Combo 2 library) VH: EVQLVESGGGVVQPGRSLRLSCAASGFTFDNRAMNWVRQAPGKGLEWVSAISSSGSTMYYADSVKGRFTISRDNSKNTLYLQMNSLRAEDTAVYYCARKRWYGMDVWGQGTTVTVSS VL: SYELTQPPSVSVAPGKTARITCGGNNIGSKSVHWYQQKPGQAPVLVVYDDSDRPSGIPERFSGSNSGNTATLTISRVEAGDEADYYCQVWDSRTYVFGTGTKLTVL",
    "pKd": 9.86
  },
  {
    "BINDER": "A11 scFv-Fc (scFv, V domains shown, Tested as scFv-Fc fusion (human IgG1 Fc, vector pDNL9) in crude yeast supernatant; Combo 2 library) VH: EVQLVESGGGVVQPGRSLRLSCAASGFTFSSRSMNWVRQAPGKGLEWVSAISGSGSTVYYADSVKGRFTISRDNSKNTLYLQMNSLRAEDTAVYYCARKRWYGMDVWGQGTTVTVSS VL: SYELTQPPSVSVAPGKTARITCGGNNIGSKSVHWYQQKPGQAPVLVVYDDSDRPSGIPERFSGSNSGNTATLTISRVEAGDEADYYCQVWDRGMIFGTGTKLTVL",
    "pKd": 10.22
  }
]

*Q* Entry B12 scFv-Fc (scFv, V domains shown, Tested as scFv-Fc fusion (human IgG1 Fc, vector pDNL9) in crude yeast supernatant; Combo 2 library) VH: EVQLVESGGGVVQPGRSLRLSCAASGFTFSDRAMNWVRQAPGKGLEWVSAISGTGASTYYADSVKGRFTISRDNSKNTLYLQMNSLRAEDTAVYYCARKRWYGMDVWGQGTTVTVSS VL: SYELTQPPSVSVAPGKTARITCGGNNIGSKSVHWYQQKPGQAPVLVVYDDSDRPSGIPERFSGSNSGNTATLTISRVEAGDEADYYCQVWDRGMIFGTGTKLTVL has what pKd?
*A* 10.08
